target: PD-L1 (human); assay: flow cytometry, CHO cells stably expressing PD-L1
Sequence (chain, as listed by the source): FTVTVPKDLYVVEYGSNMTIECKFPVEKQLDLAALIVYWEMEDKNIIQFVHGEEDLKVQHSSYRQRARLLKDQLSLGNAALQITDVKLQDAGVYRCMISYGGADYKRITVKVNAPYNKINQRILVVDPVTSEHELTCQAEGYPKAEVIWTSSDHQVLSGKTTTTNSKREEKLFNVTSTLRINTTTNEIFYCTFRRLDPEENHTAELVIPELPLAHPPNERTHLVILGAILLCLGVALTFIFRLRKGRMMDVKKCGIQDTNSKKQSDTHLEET
Binary call on Fold change to WT with cut-off 3 fold: strictly below means y, and equality or higher means n.

Decide: Fold change to WT of CD80 variant E35D/M47I/E77A/L85Q/R94W IgV-Fc (Fc fusion) VIHVTKEVKEVATLSCGHNVSVEELAQTRIYWQKDKKMVLTMMSGDINIWPEYKNRTIFDITNNLSIVILALRPSDAGTYECVVQKYEKDAFKWEHLAEVT strictly below 3 fold?
n

Decide: Fold change to WT of CD80 variant Q33L/E35D/N48K/L85Q/L97Q IgV-Fc (Fc fusion) VIHVTKEVKEVATLSCGHNVSVEELAQTRIYWLKDKKMVLTMMSGDMKIWPEYKNRTIFDITNNLSIVILALRPSDEGTYECVVQKYEKDAFKREHQAEVT strictly below 3 fold?
n

Decide: Fold change to WT of CD80 variant E35D/M47V/A71G/L85M/L97Q IgV-Fc (Fc fusion) VIHVTKEVKEVATLSCGHNVSVEELAQTRIYWQKDKKMVLTMMSGDVNIWPEYKNRTIFDITNNLSIVILGLRPSDEGTYECVVMKYEKDAFKREHQAEVT strictly below 3 fold?
n

Decide: Fold change to WT of CD80 variant A26E/E35D/M43T/M47L/L85Q/R94Q IgV-Fc (Fc fusion) VIHVTKEVKEVATLSCGHNVSVEELEQTRIYWQKDKKMVLTMTSGDLNIWPEYKNRTIFDITNNLSIVILALRPSDEGTYECVVQKYEKDAFKQEHLAEVT strictly below 3 fold?
n

Decide: Fold change to WT of CD80 variant Q33L/E35D/M43I/L85Q/R94W IgV-Fc (Fc fusion) VIHVTKEVKEVATLSCGHNVSVEELAQTRIYWLKDKKMVLTMISGDMNIWPEYKNRTIFDITNNLSIVILALRPSDEGTYECVVQKYEKDAFKWEHLAEVT strictly below 3 fold?
n

Decide: Fold change to WT of CD80 variant Q33K/E35D/D46V/L85Q IgV-Fc (Fc fusion) VIHVTKEVKEVATLSCGHNVSVEELAQTRIYWKKDKKMVLTMMSGVMNIWPEYKNRTIFDITNNLSIVILALRPSDEGTYECVVQKYEKDAFKREHLAEVT strictly below 3 fold?
n

Decide: Fold change to WT of CD80 variant E35D/D46E/M47V/L97Q IgV-Fc (Fc fusion) VIHVTKEVKEVATLSCGHNVSVEELAQTRIYWQKDKKMVLTMMSGEVNIWPEYKNRTIFDITNNLSIVILALRPSDEGTYECVVLKYEKDAFKREHQAEVT strictly below 3 fold?
y

Decide: Fold change to WT of CD80 variant Q33L/E35D/M47L/V68M/L85Q/E88D IgV-Fc (Fc fusion) VIHVTKEVKEVATLSCGHNVSVEELAQTRIYWLKDKKMVLTMMSGDLNIWPEYKNRTIFDITNNLSIMILALRPSDEGTYECVVQKYDKDAFKREHLAEVT strictly below 3 fold?
n

Decide: Fold change to WT of CD80 variant V22A/E35D/V68E/A71D IgV-Fc (Fc fusion) VIHVTKEVKEVATLSCGHNVSAEELAQTRIYWQKDKKMVLTMMSGDMNIWPEYKNRTIFDITNNLSIEILDLRPSDEGTYECVVLKYEKDAFKREHLAEVT strictly below 3 fold?
y
